Target: T1, ZFP SBS#1364 (synthetic)
T1 chain: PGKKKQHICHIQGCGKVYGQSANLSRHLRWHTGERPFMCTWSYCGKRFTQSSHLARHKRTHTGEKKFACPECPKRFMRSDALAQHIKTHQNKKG
Experiment: EMSA
Settings: tags: MBP fusion
test_readout: pKd
// pKd here means minus log10 of the molar concentration (mol/L)

# input Given the binder ATGGGTGAA (dsDNA) DNA 1: ATGGGTGAA DNA 2: TTCACCCAT , what is its reported pKd?
# output 8.91
